Record form. Attribute: Met Stab % (60 mins) MLM. Fill in for each entry.
assay: Metabolic stability in liver microsomes (MLM); assay type: in vitro ADME, mice; settings: percent remaining at 60 min, 1 μM compound, 0.25 mg/mL protein, 1 mM NADPH
Your answer should be a plain number; it is taken to be in %.

Ask: What Met Stab % (60 mins) MLM value was documented for this molecule, O=C1/C(=N\Nc2nc3ccccc3s2)Nc2cc(Br)ccc21 [7-116] ?
Result: 64

Ask: What Met Stab % (60 mins) MLM value was documented for this molecule, Fc1cc(Br)c2c(c1)/C(=N\Nc1ccc3ccccc3n1)CC2 [7-45] ?
Result: 14

Ask: What Met Stab % (60 mins) MLM value was documented for this molecule, CCc1ccc2c(c1)C/C(=N/Nc1nc3ccccc3s1)C2=O [7-104] ?
Result: 17

Ask: What Met Stab % (60 mins) MLM value was documented for this molecule, c1ccc2c(c1)CN(Nc1nc3ccccc3s1)C2 [7-49] ?
Result: 1

Ask: What Met Stab % (60 mins) MLM value was documented for this molecule, O=C1/C(=N\Nc2cc3ccccc3s2)Cc2ccccc21 [7-83] ?
Result: 16

Ask: What Met Stab % (60 mins) MLM value was documented for this molecule, O=C1/C(=N\Nc2nc3ccccc3s2)Cc2c(Cl)cccc21 [7-125] ?
Result: 36

Ask: What Met Stab % (60 mins) MLM value was documented for this molecule, N#Cc1ccc2nc(N/N=C3\CCc4ccccc43)sc2c1 [7-33] ?
Result: 35

Ask: What Met Stab % (60 mins) MLM value was documented for this molecule, Cc1ccc2nc(N/N=C3/CCc4ccccc43)sc2c1 [7-46] ?
Result: 5

Ask: What Met Stab % (60 mins) MLM value was documented for this molecule, CN1/C(=N/Nc2nc3ccccc3s2)C(=O)c2ccccc21 [7-114] ?
Result: 40

Ask: What Met Stab % (60 mins) MLM value was documented for this molecule, O=C1/C(=N\Nc2nc3ccccc3s2)Cc2cc(C3CC3)ccc21 [7-105] ?
Result: 75

Ask: What Met Stab % (60 mins) MLM value was documented for this molecule, O=C1/C(=N\Nc2nc3ccccc3s2)Cc2ccccc21 [7-62] ?
Result: 31

Ask: What Met Stab % (60 mins) MLM value was documented for this molecule, c1ccc2c(c1)CC/C2=N/Nc1ccc2ccccc2c1 [7-48] ?
Result: 14

Ask: What Met Stab % (60 mins) MLM value was documented for this molecule, O=C1/C(=N\Nc2nc3ccccc3s2)Cc2c1cccc2C(F)(F)F [7-91] ?
Result: 67

Ask: What Met Stab % (60 mins) MLM value was documented for this molecule, C/C(=N\Nc1nc2ccccc2s1)c1ccccc1C [7-54] ?
Result: 0

Ask: What Met Stab % (60 mins) MLM value was documented for this molecule, COc1ccc2c(c1)C/C(=N/Nc1nc3ccccc3s1)C2=O [7-99] ?
Result: 6

Ask: What Met Stab % (60 mins) MLM value was documented for this molecule, O=C1/C(=N\Nc2nc3ccccc3s2)Cc2cc(C(F)(F)F)ccc21 [7-108] ?
Result: 68

Ask: What Met Stab % (60 mins) MLM value was documented for this molecule, c1ccc2c(c1)CC/C2=N/Nc1nccs1 [7-64] ?
Result: 0

Ask: What Met Stab % (60 mins) MLM value was documented for this molecule, O=C1/C(=N\Nc2nc3ccccc3s2)Cc2cc(Br)ccc21 [7-94] ?
Result: 50

Ask: What Met Stab % (60 mins) MLM value was documented for this molecule, CC(C)Oc1ccc2c(c1)C(=O)/C(=N\Nc1nc3ccccc3s1)C2 [7-74] ?
Result: 6

Ask: What Met Stab % (60 mins) MLM value was documented for this molecule, O=C1/C(=N\Nc2nc3ccccc3s2)Nc2ccccc21 [7-95] ?
Result: 69

Ask: What Met Stab % (60 mins) MLM value was documented for this molecule, O=C1/C(=N\Nc2nc3ccccc3s2)Cc2cc(Cl)ccc21 [7-71] ?
Result: 35

Ask: What Met Stab % (60 mins) MLM value was documented for this molecule, O=C1/C(=N\Nc2nc3ccccc3s2)Cc2cc(N3CCC3)ccc21 [7-113] ?
Result: 6

These entries and their values trace back to patent US20250205204A1.
